B1: tRNA (parent)
chain: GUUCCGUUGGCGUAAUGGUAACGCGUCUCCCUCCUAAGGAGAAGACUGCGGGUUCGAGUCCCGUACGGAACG

- Variants of: B1
- method notes: yeast fitness relative to wild type (ratio to wild type); higher = fitter; tRNA-Arg(CCU), competitive growth, 37 C, YPD
This sample holds only a part of the variants without activity.
Please respond with reported yeast fitness for every item in the list.

Given the variant G6A G9A C24G U35A G48C , what is its reported yeast fitness? ≤ 0.5

Continue with U13A A42U A57C C61U A65U ≤ 0.5

For C11A U16C G18C A45C A57C then? ≤ 0.5

Also C22U C61A C66U , if possible. ≤ 0.5

Another variant to look at: C29A A37G C49A U64C G68A ≤ 0.5

For A14G G23A U54G then? ≤ 0.5

Also, G6A G12A C22U A42C please. ≤ 0.5

Try C4A C24G C61A C66U next. ≤ 0.5

Likewise for U7A G38A A42U G51A U53G C60G ? ≤ 0.5

What about this variant? U35G U64C A69C ≤ 0.5

For C33G A42C C66G A70G then? ≤ 0.5

Measured values drawn from the RNAGym collection of RNA variant scans (doi:10.1126/science.aae0568) for this set.
